System: HCC827 cells (EGFR Exon19 del, non-small cell lung cancer cells)
Assay: Cell viability assay (WST/CCK8), HCC827 cells
Type: cell-based
Details: Homo sapiens, HCC827, 72 h, Table 3, poziotinib-based compounds; HCC827 (Exon19 Del); 72 hours; WST (CCK8); read-out: IC50 (half inhibitory concentration)
Rule for this label: Yes means IC50 is less than 10 nM; No means IC50 is at least 10 nM.

In: Determine if COc1cc2ncnc(Nc3ccc(Cl)c(Cl)c3F)c2cc1OC1CCN(C(=O)CCSc2cccc3c2CN(C2CCC(=O)NC2=O)C3=O)CC1 (centres unmarked) shows IC50 strictly lower than 10 nM.
Out: No

In: In plain terms, does COc1cc2ncnc(Nc3ccc(Cl)c(Cl)c3F)c2cc1OC1CCNCC1 [Poziotinib derivative A (SIAIS219149)] come in under 10 nM for IC50?
Out: Yes

In: Decide: IC50 of COc1cc2ncnc(Nc3ccc(Cl)c(Cl)c3F)c2cc1OC1CCN(C(=O)CCOCCOCCOCCOCCOCCNc2cccc3c2C(=O)N(C2CCC(=O)NC2=O)C3=O)CC1 (centres unmarked) strictly below 10 nM?
Out: No

In: # strict comparison: is reported IC50 < 10 nM? input = COc1cc2ncnc(Nc3ccc(Cl)c(Cl)c3F)c2cc1OC1CCN(C(=O)CCCNc2cccc3c2C(=O)N(C2CCC(=O)NC2=O)C3=O)CC1 (centres unmarked)
Out: No

In: Identify whether the compound COc1cc2ncnc(Nc3ccc(Cl)c(Cl)c3F)c2cc1OC1CCN(C(=O)CCCSc2cccc3c2CN(C2CCC(=O)NC2=O)C3=O)CC1 (centres unmarked) records IC50 below 10 nM.
Out: No

* * *

Record form. Attribute: pIC50. Fill in for each entry.
Test system: PC9 cells (EGFR Exon 19 del, non-small cell lung cancer cells)
Experiment: Cell viability assay (WST/CCK8), PC9 cells
Type: cell-based
Details: Homo sapiens, PC-9; PC9 (Exon19 Del), 72 hours, WST (CCK8); read-out: IC50 (half inhibitory concentration)
Scale explanation: pIC50 corresponds to minus log10 of a concentration expressed in moles per litre.

In: // returns reported pIC50 for input COc1cc2ncnc(Nc3ccc(F)c(Cl)c3)c2cc1NC(=O)/C=C/CN1CCN(C(=O)COCCOCCOCCOCCSc2cccc3c2C(=O)N(C2CCC(=O)NC2=O)C3=O)CC1 (centres unmarked)
Out: 7.08

In: I have this molecule here, COc1cc2ncnc(Nc3ccc(F)c(Cl)c3)c2cc1NC(=O)/C=C/CN1CCN(C(=O)CCCCCCSc2cccc3c2CN(C2CCC(=O)NC2=O)C3=O)CC1 (centres unmarked) , and I need its recorded pIC50.
Out: 8.14

In: Suppose we examine the molecule COc1cc2ncnc(Nc3ccc(F)c(Cl)c3)c2cc1NC(=O)/C=C/CN1CCC(N2CCN(CCCCC#Cc3cccc4c3CN(C3CCC(=O)NC3=O)C4=O)CC2)CC1 (centres unmarked) ; what pIC50 value has been reported?
Out: 8.60

In: If you can, please state the reported pIC50 value of COc1cc2ncnc(Nc3ccc(F)c(Cl)c3)c2cc1NC(=O)/C=C/CN1CCC(NC(=O)CCCCSc2cccc3c2CN(C2CCC(=O)NC2=O)C3=O)CC1 (centres unmarked) .
Out: 8.41

In: May I ask what pIC50 has been recorded for COc1cc2ncnc(Nc3ccc(F)c(Cl)c3)c2cc1NC(=O)/C=C/CN1CCC(N2CCN(CCCCCCCCCCSc3cccc4c3CN(C3CCC(=O)NC3=O)C4=O)CC2)CC1 (centres unmarked) ?
Out: 7.71

In: For the molecule shown here, COc1cc2ncnc(Nc3ccc(F)c(Cl)c3)c2cc1NC(=O)/C=C/CN1CCN(C(=O)CCCCCNc2cccc3c2C(=O)N(C2CCC(=O)NC2=O)C3=O)CC1 (centres unmarked) , give the reported pIC50.
Out: 7.80

In: What does the record list as pIC50 for COc1cc2ncnc(Nc3ccc(F)c(Cl)c3)c2cc1NC(=O)/C=C/CN1CCC(N2CCN(C(=O)CCC(=O)NCCOCCNc3cccc4c3C(=O)N(C3CCC(=O)NC3=O)C4=O)CC2)CC1 (centres unmarked) ?
Out: 7.69

In: May I ask what pIC50 has been recorded for COc1cc2ncnc(Nc3ccc(F)c(Cl)c3)c2cc1NC(=O)/C=C/CN1CCN(C(=O)CCOCCOCCC(=O)N[C@H](C(=O)N2C[C@H](O)C[C@H]2C(=O)NCc2ccc(-c3scnc3C)cc2)C(C)(C)C)CC1 ?
Out: 6.16

* * *

Exercise: for every item that follows, state its recorded IC50.
Tested on: HCC827 cells (EGFR Exon19 del, non-small cell lung cancer cells)
Test: Cell viability assay (WST/CCK8), HCC827 cells
Type: cell-based
Details: Homo sapiens, HCC827, 72 h, Table 6, canertinib-based compounds; HCC827 (Exon19 Del); 72 hours; WST; read-out: IC50 (half inhibitory concentration)
Dear colleague, please return just the value in nM, with no unit written.

In: Fill blank: measured IC50 of the compound C=CC(=O)Nc1cc2c(Nc3ccc(F)c(Cl)c3)ncnc2cc1OCCCN1CCN(CCCCC#CC2c3ccccc3C(=O)N2C2CCC(=O)NC2=O)CC1 (stereo not shown) is ____.
Out: 1.2

In: Please look up its IC50: C=CC(=O)Nc1cc2c(Nc3ccc(F)c(Cl)c3)ncnc2cc1OCCCN1CCN(C(=O)CCCC(=O)N[C@H](C(=O)N2C[C@H](O)C[C@H]2C(=O)NCc2ccc(-c3scnc3C)cc2)C(C)(C)C)CC1
Out: 14.3

In: Could you share which IC50 value was measured for C=CC(=O)Nc1cc2c(Nc3ccc(F)c(Cl)c3)ncnc2cc1OCCCN1CCC(N2CCN(CCCCCCSc3cccc4c3CN(C3CCC(=O)NC3=O)C4=O)CC2)CC1 (stereo not shown) ?
Out: 4.2

In: Bench note: what IC50 did C=CC(=O)Nc1cc2c(Nc3ccc(F)c(Cl)c3)ncnc2cc1OCCCN1CCC(N2CCN(C(=O)CCCCCNc3cccc4c3C(=O)N(C3CCC(=O)NC3=O)C4=O)CC2)CC1 (stereo not shown) show?
Out: 5.2

In: What does the data say about its IC50? Entry: C=CC(=O)Nc1cc2c(Nc3ccc(F)c(Cl)c3)ncnc2cc1OCCCN1CCN(C(=O)CCN2CCN(CCC(=O)N[C@H](C(=O)N3C[C@H](O)C[C@H]3C(=O)NCc3ccc(-c4scnc4C)cc3)C(C)(C)C)CC2)CC1
Out: 70

In: Recorded IC50 for C=CC(=O)Nc1cc2c(Nc3ccc(F)c(Cl)c3)ncnc2cc1OCCCN1CCC(N2CCN(C(=O)CNc3cccc4c3C(=O)N(C3CCC(=O)NC3=O)C4=O)CC2)CC1 (stereo not shown) , please?
Out: 5.7

In: I am curious: what IC50 value has been reported for C=CC(=O)Nc1cc2c(Nc3ccc(F)c(Cl)c3)ncnc2cc1OCCCN1CCN(C(=O)CCOCCOCCOCCOCCC(=O)N[C@H](C(=O)N2C[C@H](O)C[C@H]2C(=O)NCc2ccc(-c3scnc3C)cc2)C(C)(C)C)CC1 ?
Out: 47.2

In: Data request, read-out IC50, for C=CC(=O)Nc1cc2c(Nc3ccc(F)c(Cl)c3)ncnc2cc1OCCCN1CCN(C(=O)CCC(=O)NCCNc2cccc3c2C(=O)N(C2CCC(=O)NC2=O)C3=O)CC1 (stereo not shown)
Out: 41

In: Which IC50 value is on record for C=CC(=O)Nc1cc2c(Nc3ccc(F)c(Cl)c3)ncnc2cc1OCCCN1CCN(C(=O)CCCCCSc2cccc3c2CN(C2CCC(=O)NC2=O)C3=O)CC1 (stereo not shown) ?
Out: 2

In: Which IC50 value belongs to C=CC(=O)Nc1cc2c(Nc3ccc(F)c(Cl)c3)ncnc2cc1OCCCN1CCC(N2CCNCC2)CC1 [Caneritinib derivative B (SIAIS249183)] ?
Out: 15.9

In: IC50 for C=CC(=O)Nc1cc2c(Nc3ccc(F)c(Cl)c3)ncnc2cc1OCCCN1CCN(CCCCCCNc2cccc3c2C(=O)N(C2CCC(=O)NC2=O)C3=O)CC1 (stereo not shown) ?
Out: 1.4

In: Which IC50 value is on record for C=CC(=O)Nc1cc2c(Nc3ccc(F)c(Cl)c3)ncnc2cc1OCCCN1CCC(N2CCN(C(=O)CCCCCSc3cccc4c3CN(C3CCC(=O)NC3=O)C4=O)CC2)CC1 (stereo not shown) ?
Out: 3.3

In: Entry C=CC(=O)Nc1cc2c(Nc3ccc(F)c(Cl)c3)ncnc2cc1OCCCN1CCNCC1 [Caneritinib derivative A (SIAIS293064)] : reported IC50 = ?
Out: 4.5

In: Which IC50 value belongs to C=CC(=O)Nc1cc2c(Nc3ccc(F)c(Cl)c3)ncnc2cc1OCCCN1CCN(C(=O)CCCCCCNc2cccc3c2C(=O)N(C2CCC(=O)NC2=O)C3=O)CC1 (stereo not shown) ?
Out: 2.5

In: Consider the compound C=CC(=O)Nc1cc2c(Nc3ccc(F)c(Cl)c3)ncnc2cc1OCCCN1CCC(N2CCN(C(=O)CCCCSc3cccc4c3CN(C3CCC(=O)NC3=O)C4=O)CC2)CC1 (stereo not shown) and give its measured IC50.
Out: 6.7

In: If you can, please state the reported IC50 value of C=CC(=O)Nc1cc2c(Nc3ccc(F)c(Cl)c3)ncnc2cc1OCCCN1CCN(C(=O)CNc2cccc3c2C(=O)N(C2CCC(=O)NC2=O)C3=O)CC1 (stereo not shown) .
Out: 10.3
